assay: Pharmacokinetics assay in c57bl/6 mice after intragastric administration; format: in vivo; settings: mouse, plasma, po, female c57bl/6 mice, 3 mg/kg, read-out: Half-Life t½ (converted)
property: half-life (h)
One number for each entry, in h.

Query: So what does the record say about half-life for OCCn1cc(-c2ccc(N3CCC([C@H]4c5c(F)cccc5-c5cncn54)CC3)cc2)cn1 ?
Response: 2.06

----------
experiment: Pharmacokinetics assay in c57bl/6 mice after intragastric administration; format: in vivo; details: mouse, plasma, po, female c57bl/6 mice, 3 mg/kg, read-out: Clearance CLz/F
property: CL/F (mL/min/kg)
Give bare numbers, in mL/min/kg.

Query: So what does the record say about CL/F for OCCn1cc(-c2ccc(N3CCC([C@H]4c5c(F)cccc5-c5cncn54)CC3)cc2)cn1 ?
Response: 10.8

----------
experiment: Pharmacokinetics assay in c57bl/6 mice after intragastric administration; format: in vivo; settings: mouse, plasma, po, female c57bl/6 mice, 3 mg/kg, read-out: Mean Residence Time MRT
property: MRT (h)
Answers are plain numbers, in h.

Query: So what does the record say about MRT for OCCn1cc(-c2ccc(N3CCC([C@H]4c5c(F)cccc5-c5cncn54)CC3)cc2)cn1 [Example 41] ?
Response: 1.36

----------
target: IDO in HeLa cells (Homo sapiens (Human), UniProt P14902); assay: Inhibition activity on IDO in HeLa cells (INF-γ induced); type: cell-based; conditions: HeLa cells, INF-γ and tryptophan, 48 hours; read-out: IC50 for inhibiting the activity of IDO in HeLa cells
Sequence (P14902 whole entry): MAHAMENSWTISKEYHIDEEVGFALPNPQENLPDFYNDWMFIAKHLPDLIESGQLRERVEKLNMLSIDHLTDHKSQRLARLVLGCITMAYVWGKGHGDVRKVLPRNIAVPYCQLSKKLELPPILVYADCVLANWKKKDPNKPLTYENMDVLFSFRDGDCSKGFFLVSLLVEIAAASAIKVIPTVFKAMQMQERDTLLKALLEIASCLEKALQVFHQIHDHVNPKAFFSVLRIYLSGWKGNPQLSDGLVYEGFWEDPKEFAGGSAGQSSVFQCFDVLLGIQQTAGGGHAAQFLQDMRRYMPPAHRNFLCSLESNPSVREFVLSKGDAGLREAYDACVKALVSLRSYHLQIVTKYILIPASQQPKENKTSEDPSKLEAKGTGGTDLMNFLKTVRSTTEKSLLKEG
Where a name gives a salt, the structure may show the parent alone.
Can you tell me pIC50 for the items I'm about to list?
Answers are plain numbers, as −log10 of the molar value.

Reference set, count: 3
Nc1cc(-c2nnc(N3CCC(C4c5c(F)cccc5-c5cncn54)CC3)s2)ccn1 (centres unmarked) [Example 36, trifluoroacetate]: 7.56
O=C(Nc1ccccc1)N1CCC(C2c3c(F)cccc3-c3cncn32)CC1 (centres unmarked) [Example 21, trifluoroacetate]: 6.32
Fc1cccc2c1C(C1CCN(c3ccc(-c4cnn([C@@H]5CCOC5)c4)cc3)CC1)n1cncc1-2 (some centres unmarked) [Example 32, trifluoroacetate]: 6.65

Please give pIC50 for each item listed below.
1. Fc1cccc2c1C(C1CCN(c3ccc(Cl)cn3)CC1)n1cncc1-2 (centres unmarked) [Example 47]
2. N#Cc1ccc(N2CCC(C3c4c(F)cccc4-c4cncn43)CC2)cc1F (centres unmarked) [Example 45]
3. OC[C@H](O)Cn1cc(-c2ccc(N3CCC(C4c5c(F)cccc5-c5cncn54)CC3)cc2)cn1 (some centres unmarked) [Example 30, trifluoroacetate]
4. Fc1cccc(N2CCC(C3c4c(F)cccc4-c4cncn43)CC2)c1 (centres unmarked) [Example 3, trifluoroacetate]
5. Fc1ccc(N2CCC(C3c4c(F)cccc4-c4cncn43)CC2)cc1F (centres unmarked) [Example 46]
6. Fc1cccc2c1C(C1CCN(c3ncccn3)CC1)n1cncc1-2 (centres unmarked) [Example 16, trifluoroacetate]

Response:
7.05
6.64
6.48
6.78
7.16
6.58

----------
test: Pharmacokinetics assay in SD rats after intragastrical administration; assay type: in vivo; conditions: both sexes, Sprague-Dawley, rat, plasma, po, intragastric, 10 mg/kg, read-out: Plasma Conc. Cmax
Structures can show the parent of a compound that is named as a salt.
property: Cmax (ng/mL)
Give bare numbers, in ng/mL.

Query: So what does the record say about Cmax for Fc1cccc(N2CCC(C3c4c(F)cccc4-c4cncn43)CC2)c1 (stereo not shown) [Example 3, trifluoroacetate] ?
Response: 1070
